# maps each entry to its IC50
biological target: FAK (Mus musculus, UniProt P34152); assay: Phos IC50 (phosphorylation)
Sequence (P34152 2-1052): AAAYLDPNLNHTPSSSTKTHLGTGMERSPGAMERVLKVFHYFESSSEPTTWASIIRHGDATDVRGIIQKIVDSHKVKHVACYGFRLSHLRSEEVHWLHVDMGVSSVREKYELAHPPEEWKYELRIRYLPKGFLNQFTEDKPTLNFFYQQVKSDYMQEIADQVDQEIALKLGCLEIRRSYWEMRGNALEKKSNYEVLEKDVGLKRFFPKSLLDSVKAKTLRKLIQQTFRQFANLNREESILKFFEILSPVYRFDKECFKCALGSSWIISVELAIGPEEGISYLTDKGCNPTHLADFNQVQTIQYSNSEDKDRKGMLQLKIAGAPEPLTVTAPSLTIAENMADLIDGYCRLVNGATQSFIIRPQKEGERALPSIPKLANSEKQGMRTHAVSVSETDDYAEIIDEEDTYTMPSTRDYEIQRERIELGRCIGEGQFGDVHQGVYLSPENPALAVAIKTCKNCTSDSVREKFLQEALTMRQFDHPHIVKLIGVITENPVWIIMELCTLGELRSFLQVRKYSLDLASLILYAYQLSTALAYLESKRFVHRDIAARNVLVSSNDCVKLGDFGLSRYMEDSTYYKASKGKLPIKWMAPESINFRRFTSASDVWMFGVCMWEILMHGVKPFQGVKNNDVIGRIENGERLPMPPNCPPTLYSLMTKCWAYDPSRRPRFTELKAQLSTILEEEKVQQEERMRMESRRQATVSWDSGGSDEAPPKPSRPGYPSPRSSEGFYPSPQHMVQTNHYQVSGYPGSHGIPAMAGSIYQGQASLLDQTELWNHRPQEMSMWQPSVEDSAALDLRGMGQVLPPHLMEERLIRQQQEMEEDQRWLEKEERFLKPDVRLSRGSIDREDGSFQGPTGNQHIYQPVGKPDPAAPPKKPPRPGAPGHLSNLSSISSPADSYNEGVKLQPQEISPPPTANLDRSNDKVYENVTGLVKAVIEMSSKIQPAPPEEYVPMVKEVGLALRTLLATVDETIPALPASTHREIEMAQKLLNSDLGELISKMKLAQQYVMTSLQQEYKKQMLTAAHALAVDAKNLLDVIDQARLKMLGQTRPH

{"columns": ["COMPOUND", "UNIT OF MEASURE", "CENSORING QUALIFIER", "IC50"],
 "data": [
  ["CNS(=O)(=O)c1ccccc1Nc1nc(Nc2cc(OC3CCNCC3)ccc2OC)ncc1Br [Example 3-78]", "nM", ">", 10000],
  ["CNS(=O)(=O)c1cc(F)ccc1Nc1nc(Nc2ccc(N3CCOCC3)cc2OC)ncc1Br [Example 52]", "nM", "=", 200],
  ["CNS(=O)(=O)c1ccccc1Nc1nc(Nc2ccc(OC3CCN(C)CC3)cc2OC)ncc1Br [Example 3-33]", "nM", "=", 30],
  ["CCNC(=O)c1ccccc1Nc1nc(Nc2ccc(N3CCOCC3)cc2OC)ncc1Cl [Example 9-1]", "nM", "=", 360],
  ["CCC(CC)NS(=O)(=O)c1ccccc1Nc1nc(Nc2ccc(N3CCN(C)CC3)cc2OC)ncc1Cl [Example 23-2]", "nM", "=", 200],
  ["CNC(=O)c1cc(F)ccc1Nc1nc(Nc2cccc3c2ccn3C)ncc1Cl [Example 11-3]", "nM", "=", 410],
  ["COc1c(Nc2ncc(Cl)c(Nc3ccccc3S(=O)(=O)NC(C)C)n2)ccc(N2CCOCC2)c1F [Example 19-11]", "nM", ">", 10000],
  ["CCCS(=O)(=O)c1ccccc1Nc1nc(Nc2ccc(N3CCC(N4CCCCC4)CC3)cc2OC)ncc1Cl [Example 26-3]", "nM", "=", 100],
  ["COc1cc(N2CCC(N3CCN(C)CC3)CC2)ccc1Nc1ncc(Cl)c(Nc2ccccc2S(=O)(=O)C2CC2)n1 [Example 30-7]", "nM", "=", 600],
  ["COc1cc(N2CCOCC2)ccc1Nc1ncc(Cl)c(Nc2ccccc2C(=O)N(C)C)n1 [Example 14-1]", "nM", "=", 200],
  ["CCNC1CCN(c2ccc(Nc3ncc(Cl)c(Nc4ccccc4S(=O)(=O)NC(CC)CC)n3)c(OC)c2)C1 (stereo not drawn) [Example 23-4]", "nM", "=", 900],
  ["COc1cc(N2CCOCC2)ccc1Nc1ncc(Cl)c(Nc2ccccc2S(=O)(=O)C(C)C)n1 [Example 28-3]", "nM", "=", 70],
  ["CCCCCS(=O)(=O)c1ccccc1Nc1nc(Nc2ccc(N3CCOCC3)cc2OC)ncc1Cl [Example 34-3]", "nM", "=", 190],
  ["COc1cc(N2CCC[C@@H](C(N)=O)C2)ccc1Nc1ncc(Cl)c(Nc2ccccc2S(=O)(=O)C(C)C)n1 [Example 28-28]", "nM", "=", 400],
  ["COc1cc(N2CCN(C)C(=O)C2)ccc1Nc1ncc(Cl)c(Nc2ccccc2S(=O)(=O)C(C)C)n1 [Example 28-23]", "nM", "=", 500],
  ["COc1cc(N2CCN3COCC[C@H]3C2)ccc1Nc1ncc(Cl)c(Nc2ccccc2S(=O)(=O)C(C)C)n1 [Example 28-26]", "nM", "=", 200],
  ["COc1cc(N2CCN(C(C)=O)CC2)ccc1Nc1ncc(Cl)c(Nc2ccccc2S(=O)(=O)C2CC2)n1 [Example 30-2]", "nM", "=", 200],
  ["CC(C)NS(=O)(=O)c1ccccc1Nc1nc(Nc2ccc(OC3CCN(C)CC3)cc2F)ncc1Cl [Example 19-28]", "nM", "=", 100],
  ["CC(C)S(=O)(=O)c1ccccc1Nc1nc(Nc2cccc3c2OCC3)ncc1Cl [Example 28-31]", "nM", "=", 60],
  ["COc1cc(N2CCOCC2)ccc1Nc1ncc(Cl)c(Nc2ccccc2S(=O)(=O)NC2CCC2)n1 [Example 24-1]", "nM", "=", 110],
  ["CCS(=O)(=O)c1ccccc1Nc1nc(Nc2ccc(CN3CCN(C)CC3)cc2OC)ncc1Cl [Example 27-7]", "nM", "=", 2000],
  ["CCCS(=O)(=O)c1ccccc1Nc1nc(Nc2ccc(N3CCC[C@@H](C(N)=O)C3)cc2OC)ncc1Cl [Example 26-13]", "nM", "=", 200],
  ["CNS(=O)(=O)c1ccccc1Nc1nc(Nc2ccc(F)cc2Cl)ncc1Br [Example 3-37]", "nM", "=", 1100],
  ["CNC(=O)c1ccccc1Nc1nc(Nc2ccc(N3CCC(N(C)C)C3)cc2OC)ncc1Cl (stereo not drawn) [Example 7-11]", "nM", "=", 600],
  ["COc1cc(OC2CCN(C)CC2)ccc1Nc1ncc(Cl)c(Nc2ccccc2S(=O)(=O)NC(C)C)n1 [Example 19-7]", "nM", "=", 300],
  ["CCN(CC)C(=O)C1CCCN(c2ccc(Nc3ncc(Cl)c(Nc4ccccc4S(=O)(=O)NC(C)C)n3)c(OC)c2)C1 (stereo not drawn) [Example 19-18]", "nM", "=", 130],
  ["CNS(=O)(=O)c1ccccc1Nc1nc(Nc2ccc(N3CCNCC3)cc2OC)ncc1Cl [Example 20-7]", "nM", "=", 100],
  ["CNS(=O)(=O)c1ccccc1Nc1nc(Nc2ccc(OC3CCN(C(C)=O)CC3)cc2OC)ncc1Br [Example 3-74]", "nM", "=", 100],
  ["CNS(=O)(=O)c1ccccc1Nc1nc(Nc2cc(-c3ccccn3)ccc2OC)ncc1Br [Example 3-67]", "nM", "=", 380],
  ["CCCS(=O)(=O)c1ccccc1Nc1nc(Nc2ccc(C(=O)N3CCN(C(C)=O)CC3)cc2OC)ncc1Cl [Example 26-19]", "nM", "=", 430]
]}

* * *

target: FAK (Mus musculus); experiment: Phos IC50 (phosphorylation)
pIC50: −log10 of the molar value.
Below, each entry is listed alongside its reported pIC50.

{"columns": ["COMPOUND", "CENSORING QUALIFIER", "pIC50"],
 "data": [
  ["CCOc1ccc(OCC)c(Nc2ncc(Br)c(Nc3ccccc3S(=O)(=O)NC)n2)c1", "<", 5.00],
  ["CCS(=O)(=O)c1ccccc1Nc1nc(Nc2ccc(N3CCOCC3)cc2OC)ncc1Cl", "=", 7.22],
  ["CNC(=O)c1ccccc1Nc1nc(Nc2ccc(N3CCN(C(C)=O)CC3)cc2OC)ncc1Cl", "=", 6.05],
  ["COc1cc(N2CCCC(C(N)=O)C2)ccc1Nc1ncc(Cl)c(Nc2ccccc2S(=O)(=O)C2CC2)n1 (stereo not shown)", "=", 6.30]
]}

* * *

Documented IC50 across a set of compounds
target: FAK (Mus musculus, UniProt P34152); assay: Phos IC50 (phosphorylation)

{"columns": ["COMPOUND", "ASSAYED SYSTEM", "CENSORING QUALIFIER", "IC50 [nM]"],
 "data": [
  ["CCCOc1ccc(OC)cc1Nc1ncc(Br)c(Nc2ccccc2S(=O)(=O)NC)n1 [Example 3-63]", "FAK (Mus musculus, UniProt P34152)", ">", 10000],
  ["CNS(=O)(=O)c1ccccc1Nc1nc(Nc2ccc(N3CCOCC3)cc2OC)ncc1Br [Example 3-19]", "FAK (Mus musculus, UniProt P34152)", "=", 350],
  ["COc1cc(N2CCC(NC(C)=O)C2)ccc1Nc1ncc(Cl)c(Nc2ccccc2S(=O)(=O)NC(C)C)n1 (centres unmarked) [Example 19-13]", "FAK (Mus musculus, UniProt P34152)", "=", 300],
  ["CNS(=O)(=O)c1ccccc1Nc1nc(Nc2ccccc2OC)ncc1Br [Example 3-6]", "FAK (Mus musculus, UniProt P34152)", "=", 110],
  ["COc1cc(N2CCC(N3CCCC3)CC2)ccc1Nc1ncc(Cl)c(Nc2ccccc2S(=O)(=O)NC(C)C)n1 [Example 19-15]", "FAK (Mus musculus, UniProt P34152)", "=", 500],
  ["CNS(=O)(=O)c1ccccc1Nc1nc(Nc2ccc(N3CCC(C(N)=O)CC3)cc2OC)ncc1Br [Example 3-43]", "FAK (Mus musculus, UniProt P34152)", "=", 200],
  ["CNS(=O)(=O)c1ccccc1Nc1nc(Nc2ccc(OC3CCN(C(C)C)C3)cc2OC)ncc1Cl (centres unmarked) [Example 20-28]", "FAK (Mus musculus, UniProt P34152)", "=", 170],
  ["CNC(=O)c1ccccc1Nc1nc(Nc2ccc(N3CCN4CCOC[C@H]4C3)cc2OC)ncc1Cl [Example 7-15]", "FAK (Mus musculus, UniProt P34152)", "=", 60]
]}

* * *

molecular target: Focal Adhesion Kinase (FAK) (Homo sapiens, UniProt Q05397); experiment: FAK assay system (Focal Adhesion Kinase inhibition); type: biochemical; conditions: FAK IC50
Sequence (Q05397 384-706): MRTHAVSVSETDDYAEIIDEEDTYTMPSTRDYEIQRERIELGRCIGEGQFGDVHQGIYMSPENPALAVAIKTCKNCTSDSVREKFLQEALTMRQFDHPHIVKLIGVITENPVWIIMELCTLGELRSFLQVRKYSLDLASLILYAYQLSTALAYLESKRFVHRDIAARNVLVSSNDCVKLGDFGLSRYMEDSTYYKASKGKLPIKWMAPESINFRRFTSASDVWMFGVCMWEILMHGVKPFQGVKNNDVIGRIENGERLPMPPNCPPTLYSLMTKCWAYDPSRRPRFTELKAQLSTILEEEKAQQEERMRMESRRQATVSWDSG
Could you mark each record yes (1) if its IC50 falls strictly under 6 nM, and no (0) if it equals or exceeds it?

{"columns": ["MOLECULE", "GROUP LABEL"],
 "data": [
  ["CNS(=O)(=O)c1ccccc1Nc1nc(Nc2cc(-c3ccc(OC)cc3)ccc2OC)ncc1Br", "no (0)"],
  ["COc1cc(N2CCC(N(C)C(C)=O)C2)ccc1Nc1ncc(Cl)c(Nc2ccccc2S(=O)(=O)NC(C)C)n1 (centres unmarked)", "yes (1)"],
  ["COc1cc(N2CCOCC2)ccc1Nc1ncc(Cl)c(Nc2ccccc2S(C)(=O)=O)n1", "no (0)"],
  ["COc1cc(N2CCOCC2)ccc1Nc1ncc(Cl)c(Nc2ccccc2S(=O)(=O)NC2CCCC2)n1", "no (0)"],
  ["CNS(=O)(=O)c1ccccc1Nc1nc(Nc2ccc(N3CCCC(C(N)=O)C3)cc2OC)ncc1Br (centres unmarked)", "yes (1)"],
  ["CNC(=O)c1cc(F)c(F)cc1Nc1nc(Nc2ccc(N3CCOCC3)cc2OC)ncc1Cl", "no (0)"],
  ["CNS(=O)(=O)c1ccccc1Nc1nc(Nc2ccc(F)cc2F)ncc1Br", "no (0)"]
]}

Hey, just so you know, these numbers are from patent US7893074B2.
